Data provenance: patent US20220143024A1

tgt: human ClpP (recombinant WT ClpP) (Homo sapiens, UniProt Q16740)
Construct: SUMO fusion (pETSUMO2); made in house; host or cells: E. coli SG1146
Sequence (Q16740 57-277): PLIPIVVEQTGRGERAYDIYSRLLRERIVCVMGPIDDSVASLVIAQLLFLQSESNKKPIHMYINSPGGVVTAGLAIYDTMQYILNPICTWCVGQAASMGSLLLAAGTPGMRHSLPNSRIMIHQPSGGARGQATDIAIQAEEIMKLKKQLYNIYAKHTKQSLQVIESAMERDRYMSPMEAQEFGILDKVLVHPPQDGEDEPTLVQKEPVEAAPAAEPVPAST
assay_method_text: ClpP enzymatic assays with fluorogenic substrates (cell-free)
Type: biochemical
measurement_setup: substrate AC-WLA-AMC; without ClpX; read-out: EC50, ClpP cleavage of AC-WLA-AMC
pEC50: −log10 of the molar value.
measurement_label: pEC50

smiles_code=O=C1C2=C(CCN(Cc3ccccc3)C2)N2CCN=C2N1Cc1ccc(C(F)(F)F)cc1 test_value=6.74

###

tgt: human ClpP (recombinant WT ClpP) (Homo sapiens, UniProt Q16740)
Construct: SUMO fusion (pETSUMO2); made in house; host or cells: E. coli SG1146
assay_method_text: ClpP enzymatic assays with fluorogenic substrates (cell-free)
Assay type: biochemical
measurement_setup: read-out: EC50, ClpP cleavage of FAPHMALVPC (Clptide); substrate FAPHMALVPC (Clptide); without ClpX; read-out: EC50, ClpP cleavage of […] (Clptide)
Procedure: Hill coefficient was determined using Origin7, Pharmacology—Dose-response curve with log (compound concentration) as the independent variable.
pEC50: −log10 of the molar value.
measurement_label: pEC50

compound="O=C1C2=C(CCN(Cc3ccccc3)C2)N2CCN=C2N1Cc1ccc(C(F)(F)F)cc1 [ONC212]" tgt="human ClpP (recombinant WT ClpP) (Homo sapiens, UniProt Q16740)" test_value=5.47
